The origin of these recorded values is ChEMBL document CHEMBL1156160.

assay: Selectivity for HCV NS3 protease over human neutrophil elastase
Ratio for assorted compounds
// no unit, no text: just the number

{"compound": "CCS(=O)(=O)CC1(NC(=O)N[C@H](C(=O)N2C[C@H]3[C@@H]([C@H]2C(=O)NC(CC2CC2)C(=O)C(N)=O)C3(C)C)C(C)(C)C)CCCCC1 (some centres undefined)", "Ratio": 290}
{"compound": "CC(C)(C)[C@H](NC(=O)NC1(CS(=O)(=O)c2ccccn2)CCCCC1)C(=O)N1C[C@H]2[C@@H]([C@H]1C(=O)NC(CC1CCC1)C(=O)C(N)=O)C2(C)C (some centres undefined)", "Ratio": 1570}

Q) // query Ratio value for entry CC1(NC(=O)N[C@H](C(=O)N2C[C@H]3[C@@H]([C@H]2C(=O)NC(CC2CC2)C(=O)C(N)=O)C3(C)C)C(C)(C)C)CCC1 (some centres undefined)
A) 110

Q) // query Ratio value for entry CC(C)(C)[C@H](NC(=O)NC1(Cc2cccnc2)CCCCC1)C(=O)N1C[C@H]2[C@@H]([C@H]1C(=O)NC(CC1CC1)C(=O)C(N)=O)C2(C)C (some centres undefined)
A) 200

Q) // query Ratio value for entry CC(c1ccccc1)C1(NC(=O)N[C@H](C(=O)N2C[C@H]3[C@@H]([C@H]2C(=O)NC(CC2CC2)C(=O)C(N)=O)C3(C)C)C(C)(C)C)CCCCC1 (some centres undefined)
A) 2600

Q) // query Ratio value for entry CC(C)(C)[C@H](NC(=O)NC1(Cc2cccs2)CCCCC1)C(=O)N1C[C@H]2[C@@H]([C@H]1C(=O)NC(CC1CC1)C(=O)C(N)=O)C2(C)C (some centres undefined)
A) 470

Q) // query Ratio value for entry CC(C)(C)[C@H](NC(=O)NC1(Cc2ccccc2)CCCCC1)C(=O)N1C[C@H]2[C@@H]([C@H]1C(=O)NC(CC1CC1)C(=O)C(N)=O)C2(C)C (some centres undefined)
A) 395

Q) // query Ratio value for entry CC(C)(C)[C@H](NC(=O)NC1(Cc2cccc3ccccc23)CCCCC1)C(=O)N1C[C@H]2[C@@H]([C@H]1C(=O)NC(CC1CC1)C(=O)C(N)=O)C2(C)C (some centres undefined)
A) 470

Q) // query Ratio value for entry CC(C)(C)[C@H](NC(=O)NC1(Cc2ccncc2)CCCCC1)C(=O)N1C[C@H]2[C@@H]([C@H]1C(=O)NC(CC1CC1)C(=O)C(N)=O)C2(C)C (some centres undefined)
A) 250

Q) // query Ratio value for entry CCS(=O)(=O)CC1(NC(=O)N[C@H](C(=O)N2C[C@H]3[C@@H]([C@H]2C(=O)NC(CC2CCC2)C(=O)C(N)=O)C3(C)C)C(C)(C)C)CCCCC1 (some centres undefined)
A) 1200

Q) // query Ratio value for entry Cc1cc(S(=O)(=O)CC2(NC(=O)N[C@H](C(=O)N3C[C@H]4[C@@H]([C@H]3C(=O)NC(CC3CC3)C(=O)C(N)=O)C4(C)C)C(C)(C)C)CCCCC2)co1 (some centres undefined)
A) 260

Q) // query Ratio value for entry CC(C)(C)[C@H](NC(=O)NC1(c2ccccc2)CCCCC1)C(=O)N1C[C@H]2[C@@H]([C@H]1C(=O)NC(CC1CC1)C(=O)C(N)=O)C2(C)C (some centres undefined)
A) 320

Q) // query Ratio value for entry CC(C)(C)[C@H](NC(=O)NC1(CS(=O)(=O)c2ccccc2)CCCCC1)C(=O)N1C[C@H]2[C@@H]([C@H]1C(=O)NC(CC1CCC1)C(=O)C(N)=O)C2(C)C (some centres undefined)
A) 1100

Q) // query Ratio value for entry CC1(NC(=O)N[C@H](C(=O)N2C[C@H]3[C@@H]([C@H]2C(=O)NC(CC2CCC2)C(=O)C(N)=O)C3(C)C)C(C)(C)C)CCCCC1 (some centres undefined)
A) 4100

Q) // query Ratio value for entry CC(C)(C)[C@H](NC(=O)NC1(C(O)c2ccccc2)CCCCC1)C(=O)N1C[C@H]2[C@@H]([C@H]1C(=O)NC(CC1CC1)C(=O)C(N)=O)C2(C)C (some centres undefined)
A) 1170

Q) // query Ratio value for entry CC(C)(C)[C@H](NC(=O)NC1(Cc2nccs2)CCCCC1)C(=O)N1C[C@H]2[C@@H]([C@H]1C(=O)NC(CC1CC1)C(=O)C(N)=O)C2(C)C (some centres undefined)
A) 620

Q) // query Ratio value for entry CC(C)(C)[C@H](NC(=O)NC1(Cc2ccccc2)CCCC1)C(=O)N1C[C@H]2[C@@H]([C@H]1C(=O)NC(CC1CC1)C(=O)C(N)=O)C2(C)C (some centres undefined)
A) 130
